All figures here come from patent US20130053392A1.

biological target: hCA I (Homo sapiens); construct: made in house; assay: CA-catalysed CO2 hydration stopped-flow inhibition assay, hCA I; format: biochemical; conditions: Table 2, sulfamides 7 and 8
Sequence (P00915 whole entry): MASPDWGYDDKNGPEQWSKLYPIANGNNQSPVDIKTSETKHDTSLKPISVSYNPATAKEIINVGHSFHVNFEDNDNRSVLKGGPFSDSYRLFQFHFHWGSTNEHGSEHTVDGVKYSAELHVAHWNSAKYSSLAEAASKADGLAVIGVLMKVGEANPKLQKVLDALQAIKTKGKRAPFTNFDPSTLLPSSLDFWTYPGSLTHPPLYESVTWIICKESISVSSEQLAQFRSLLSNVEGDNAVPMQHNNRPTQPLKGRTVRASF
parameter: pKi
Scale for pKi: -log10 of concentration given in mol/L; no unit attached.

Challenge: What is its pKi for hCA I (Homo sapiens)? Entry: NS(=O)(=O)Nc1ccc(NC(=O)Nc2ccccc2-c2ccccc2)cc1 [Compound 7i]
Response given: 4.98

Challenge: Try the molecule Cc1cc(C)cc(NC(=O)Nc2ccc(NS(N)(=O)=O)cc2)c1 [Compound 7b]
Response given: 5.08

Challenge: How about CC(NC(=O)Nc1ccc(NS(N)(=O)=O)cc1)c1cccc2ccccc12 (stereo not drawn) [Compound 7c] ?
Response given: 5.14

Challenge: Try this molecule too: COc1ccc(OC)c(NC(=O)Nc2ccc(NS(N)(=O)=O)cc2)c1 [Compound 7j]
Response given: 5.34

Challenge: Then what about the molecule Cc1cc(Cl)ccc1NC(=O)Nc1ccc(NS(N)(=O)=O)cc1 [Compound 71] ?
Response given: 5.40

Challenge: Further, for NS(=O)(=O)Nc1ccc(NC(=O)NC2CCCCC2)cc1 [Compound 7k] ?
Response given: 5.40

Challenge: Next up: CC(C)c1ccccc1NC(=O)Nc1ccc(NS(N)(=O)=O)cc1 [Compound 7g]
Response given: 5.08

Challenge: Do the same for CCCCOc1ccc(NC(=O)Nc2ccc(NS(N)(=O)=O)cc2)cc1 [Compound 7n] please
Response given: 5.81

Challenge: How about this molecule: COc1ccc(NC(=O)Nc2ccc(NS(N)(=O)=O)cc2)c(C)c1 [Compound 7e]
Response given: 5.44

====

target: hCA IX (Homo sapiens); construct: made in house; experiment: CA-catalysed CO2 hydration stopped-flow inhibition assay, hCA IX; type: biochemical; settings: Table 2, sulfamides 7 and 8; read-out: Ki hCAIX
parameter: Ki (nM)
Give just the number in nM; leave the unit off.

Challenge: Quick check: Ki of NS(=O)(=O)Nc1ccc(NC(=O)Nc2ccc(Cc3ccccc3)cc2)cc1 ?
Response given: 10

Challenge: Now this one: CN(C)c1ccc(NC(=O)NCc2ccc(NS(N)(=O)=O)cc2)cc1
Response given: 12

Challenge: Follow-up item: NS(=O)(=O)Nc1ccc(NC(=O)Nc2ccccc2-c2ccccc2)cc1
Response given: 145

Challenge: Now consider NS(=O)(=O)Nc1ccc(NC(=O)NC2CCCCC2)cc1 and answer again.
Response given: 121

Challenge: Next: CC(=O)c1ccc(NC(=O)NCc2ccc(NS(N)(=O)=O)cc2)cc1
Response given: 24

Challenge: # repeat for COc1ccc(NC(=O)Nc2ccc(NS(N)(=O)=O)cc2)c(C)c1
Response given: 21

Challenge: Moving on to the next molecule: NS(=O)(=O)Nc1ccc(CNC(=O)Nc2ccccc2Cl)cc1
Response given: 17

Challenge: Queued: NS(=O)(=O)Nc1ccc(NC(=O)Nc2ccc(CCc3ccccc3)cc2)cc1
Response given: 11

Challenge: Lookup NS(=O)(=O)Nc1ccc(NC(=O)Nc2ccc(Cl)cc2)cc1
Response given: 43

Challenge: Now consider COc1ccc(C)cc1NC(=O)Nc1ccc(NS(N)(=O)=O)cc1 and answer again.
Response given: 40

Challenge: # repeat for NS(=O)(=O)Nc1ccc(CNC(=O)Nc2ccc(Cc3ccccc3)cc2)cc1
Response given: 9

Challenge: Subsequent entry: NS(=O)(=O)Nc1ccc(NC(=O)NCc2ccco2)cc1
Response given: 19

Challenge: Field entry: Cc1cc(C)cc(NC(=O)Nc2ccc(NS(N)(=O)=O)cc2)c1
Response given: 10

Challenge: Another molecule to check: CC(NC(=O)Nc1ccc(NS(N)(=O)=O)cc1)c1cccc2ccccc12 (stereo not drawn)
Response given: 19

Challenge: Now this one: Cc1ccccc1NC(=O)NCc1ccc(NS(N)(=O)=O)cc1
Response given: 21

Challenge: What do you get for NS(=O)(=O)Nc1ccc(CNC(=O)Nc2ccccc2)cc1 ?
Response given: 11

Challenge: Same question, NS(=O)(=O)Nc1ccc(NC(=O)Nc2cccc([N+](=O)[O-])c2)cc1 this time
Response given: 16

Challenge: COc1ccc(NC(=O)NCc2ccc(NS(N)(=O)=O)cc2)cc1 ?
Response given: 11

Challenge: Likewise for CCCCOc1ccc(NC(=O)Nc2ccc(NS(N)(=O)=O)cc2)cc1 ?
Response given: 16

Challenge: Next molecule: NS(=O)(=O)Nc1ccc(CNC(=O)Nc2ccc(F)cc2)cc1
Response given: 10

Challenge: Then this molecule: CC(C)c1ccccc1NC(=O)Nc1ccc(NS(N)(=O)=O)cc1
Response given: 98
